System: Dual specificity protein kinase CLK3 (Homo sapiens) (UniProt P49761)
Sequence (P49761 whole entry, looked up): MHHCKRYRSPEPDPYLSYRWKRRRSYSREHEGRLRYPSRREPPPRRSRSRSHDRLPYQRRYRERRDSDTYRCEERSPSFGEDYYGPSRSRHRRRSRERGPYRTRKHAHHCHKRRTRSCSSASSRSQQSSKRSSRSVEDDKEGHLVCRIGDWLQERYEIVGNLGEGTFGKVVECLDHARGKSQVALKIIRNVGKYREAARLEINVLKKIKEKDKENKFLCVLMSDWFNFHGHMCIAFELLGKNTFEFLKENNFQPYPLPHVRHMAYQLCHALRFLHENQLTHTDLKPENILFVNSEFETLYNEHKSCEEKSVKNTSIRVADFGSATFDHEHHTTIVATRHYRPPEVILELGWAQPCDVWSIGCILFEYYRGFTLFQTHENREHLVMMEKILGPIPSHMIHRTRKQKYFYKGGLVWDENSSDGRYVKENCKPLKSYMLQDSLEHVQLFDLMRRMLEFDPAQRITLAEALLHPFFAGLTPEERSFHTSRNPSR
Measurement parameters: at 0.1 µM
Description: GSK_PKIS: CLK3 mean inhibition at 0.1 uM [Nanosyn]
Each entry below lists one item and its recorded inhibition value.
Value kind: inhibition (%)

Compound structure string: CS(=O)(=O)Nc1ccc(N/C=C2\C(=O)Nc3ccccc32)cc1
Value kind: inhibition
Measured number: 0.94

Compound structure string: O=C1NC(=O)C(c2ccccc2Cl)=C1Nc1cccc(O)c1
Value kind: inhibition
Measured number: 2.2

Compound structure string: CCCN1CCC=C(c2ccc(Nc3nc(Nc4ccccc4C(N)=O)c4cc[nH]c4n3)c(C)c2)C1
Value kind: inhibition
Measured number: -0.17

Compound structure string: CN1CCC(C(=O)Nc2n[nH]c3nnc(-c4ccccc4)cc23)CC1
Value kind: inhibition
Measured number: 1.91

Compound structure string: Fc1cccc(COc2ccc(Nc3ncnc4sc(-c5cccs5)cc34)cc2Cl)c1
Value kind: inhibition
Measured number: 0.66

----------
System: Dual specificity protein kinase CLK3 (Homo sapiens) (UniProt P49761)
Measurement parameters: at 1 µM
Each entry below lists one item and its recorded inhibition value.

Compound: CS(=O)(=O)CCN(CC#N)Cc1ccc(-c2ccc3ncnc(Nc4ccc(OCc5cccc(F)c5)c(Cl)c4)c3c2)o1
System: Dual specificity protein kinase CLK3 (Homo sapiens) (UniProt P49761)
Scale unit: %
inhibition: -4.13
--
Compound: COc1ccccc1Nc1ncc(-c2ccccc2)o1
System: Dual specificity protein kinase CLK3 (Homo sapiens) (UniProt P49761)
Scale unit: %
inhibition: 0.51
--
Compound: COc1ccc(-c2ccncc2)cc1C(N)=O
System: Dual specificity protein kinase CLK3 (Homo sapiens) (UniProt P49761)
Scale unit: %
inhibition: 0.61
--
Compound: CNC(=O)c1cncc(/C=C/c2c(Cl)cccc2Cl)c1
System: Dual specificity protein kinase CLK3 (Homo sapiens) (UniProt P49761)
Scale unit: %
inhibition: -3.4
--
Compound: CCN1CCC(CC(=O)Nc2n[nH]c3nc(-c4cccs4)c(Br)cc23)CC1
System: Dual specificity protein kinase CLK3 (Homo sapiens) (UniProt P49761)
Scale unit: %
inhibition: 4.44
--
Compound: Cc1ccc(C(=O)NC2CCCCC2)cc1-c1ccc(C(=O)NCC2CC2)cc1
System: Dual specificity protein kinase CLK3 (Homo sapiens) (UniProt P49761)
Scale unit: %
inhibition: 1.19
--
Compound: CS(=O)(=O)CCNCc1nc(-c2ccc3ncnc(Nc4ccc(F)c(Cl)c4)c3c2)cs1
System: Dual specificity protein kinase CLK3 (Homo sapiens) (UniProt P49761)
Scale unit: %
inhibition: 0.43
--
Compound: CCn1c(-c2nonc2N)nc2c(N3CCCC3)nccc21
System: Dual specificity protein kinase CLK3 (Homo sapiens) (UniProt P49761)
Scale unit: %
inhibition: 1.31
--
Compound: CCn1c(-c2nonc2N)nc2cncc(C(=O)N3CC[C@H](N)C3)c21
System: Dual specificity protein kinase CLK3 (Homo sapiens) (UniProt P49761)
Scale unit: %
inhibition: 1.82
--
Compound: COc1ccc2cc(-c3c(-c4ccncc4)nc(-c4ccc([S+](C)[O-])cc4)n3C)ccc2c1 (stereo not given)
System: Dual specificity protein kinase CLK3 (Homo sapiens) (UniProt P49761)
Scale unit: %
inhibition: 0.67

----------
System: BDNF/NT-3 growth factors receptor (Homo sapiens) (UniProt Q16620);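 note: each value is a mean percent inhibition of TrkB kinase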
Sequence (Q16620 32-822 limits assumed): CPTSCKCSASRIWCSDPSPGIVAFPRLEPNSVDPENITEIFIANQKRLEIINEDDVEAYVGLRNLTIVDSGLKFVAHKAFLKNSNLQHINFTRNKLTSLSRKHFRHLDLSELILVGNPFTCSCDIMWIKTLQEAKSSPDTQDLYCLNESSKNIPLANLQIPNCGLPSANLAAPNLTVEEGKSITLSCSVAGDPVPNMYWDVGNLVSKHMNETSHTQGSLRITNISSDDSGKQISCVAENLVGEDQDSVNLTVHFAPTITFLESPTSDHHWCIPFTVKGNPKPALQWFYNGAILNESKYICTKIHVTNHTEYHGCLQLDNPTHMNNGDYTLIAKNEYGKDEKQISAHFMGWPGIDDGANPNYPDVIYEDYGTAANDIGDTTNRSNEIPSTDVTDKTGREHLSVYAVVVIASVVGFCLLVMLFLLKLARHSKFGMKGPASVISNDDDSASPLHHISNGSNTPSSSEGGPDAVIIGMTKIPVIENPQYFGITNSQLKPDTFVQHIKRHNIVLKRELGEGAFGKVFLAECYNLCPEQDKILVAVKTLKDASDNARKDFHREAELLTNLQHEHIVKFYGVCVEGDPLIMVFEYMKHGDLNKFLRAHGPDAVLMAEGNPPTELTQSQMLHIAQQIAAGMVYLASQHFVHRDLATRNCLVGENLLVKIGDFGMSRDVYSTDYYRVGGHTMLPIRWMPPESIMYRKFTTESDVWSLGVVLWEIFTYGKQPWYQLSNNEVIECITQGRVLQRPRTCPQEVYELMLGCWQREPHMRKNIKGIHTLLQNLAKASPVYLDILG
Measurement parameters: at 0.1 µM
Each entry below lists one item and its recorded inhibition value.

Compound: CCn1c(-c2nonc2N)nc2ccncc21
inhibition / %: -1.44
//
Compound: COc1ccc(-c2nn3ncccc3c2-c2ccnc(Nc3ccc(Cl)c(C(F)(F)F)c3)n2)cc1
inhibition / %: -0.25
//
Compound: CCc1cccc(NC(=O)Nc2ccc(Oc3ccc4nc(NC(=O)OC)[nH]c4c3)cc2)c1
inhibition / %: 21.4
//
Compound: O=C1Nc2ccc(C(=O)c3ccco3)cc2C1=Cc1cc(Cl)c(O)c(Cl)c1
inhibition / %: 5.68
//
Compound: CCn1c(-c2nonc2N)nc2c(C#CC(C)(C)O)nc(OC[C@@H](N)c3ccccc3)cc21
inhibition / %: -1.96
//
Compound: CN1CCC(C(=O)Nc2n[nH]c3nnc(-c4ccccc4)cc23)CC1
inhibition / %: 2.71
//
Compound: Cn1cc(C=C2C(=O)Nc3cccnc32)c2ccccc21
inhibition / %: 25.3
//
Compound: COC(=O)Nc1nc2cc(Oc3ccc(NC(=O)Nc4cccc(C(=O)O)c4)cc3)ccc2[nH]1
inhibition / %: 0.82
//
Compound: COc1ccc2cc(-c3c(-c4ccncc4)nc(-c4ccc([S+](C)[O-])cc4)n3C)ccc2c1 (stereo not given)
inhibition / %: 0.67
//
Compound: COc1cc(C=NNc2ncnc3c2cnn3-c2ccccc2)ccc1O
inhibition / %: 5.2

----------
System: RAF proto-oncogene serine/threonine-protein kinase (Homo sapiens) (UniProt P04049);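 note: values are the mean percent inhibition of CRAF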
Sequence (P04049 whole entry): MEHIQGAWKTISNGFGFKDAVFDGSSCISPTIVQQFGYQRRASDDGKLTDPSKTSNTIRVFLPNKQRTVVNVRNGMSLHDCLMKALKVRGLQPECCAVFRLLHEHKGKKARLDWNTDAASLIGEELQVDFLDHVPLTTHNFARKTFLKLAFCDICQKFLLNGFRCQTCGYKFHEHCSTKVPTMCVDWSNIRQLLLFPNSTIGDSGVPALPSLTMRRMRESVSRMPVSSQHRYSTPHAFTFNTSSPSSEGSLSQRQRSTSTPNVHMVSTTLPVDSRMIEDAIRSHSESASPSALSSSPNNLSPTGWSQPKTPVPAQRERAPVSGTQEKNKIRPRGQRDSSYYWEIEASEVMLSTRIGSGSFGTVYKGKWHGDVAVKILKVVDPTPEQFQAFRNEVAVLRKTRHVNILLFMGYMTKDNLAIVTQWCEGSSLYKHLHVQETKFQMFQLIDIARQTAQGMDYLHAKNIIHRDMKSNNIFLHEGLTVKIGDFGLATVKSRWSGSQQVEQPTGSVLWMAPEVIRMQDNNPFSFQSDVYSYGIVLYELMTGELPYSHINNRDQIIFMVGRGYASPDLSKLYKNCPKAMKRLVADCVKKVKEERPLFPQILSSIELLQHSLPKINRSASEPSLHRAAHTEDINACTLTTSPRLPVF
Measurement parameters: at 1 µM

Compound structure string: O=C(Nc1n[nH]c2nc(-c3ccco3)c(Br)cc12)C1CC1
inhibition (%): 2.37
--
Compound structure string: [O-][S+]1CCN(Cc2ccc(-c3ccc4ncnc(Nc5ccc(OCc6ccccc6)c(F)c5)c4c3)o2)CC1
inhibition (%): -3.42
--
Compound structure string: COc1cc2ncn(-c3cc(OCc4ccccc4C(F)(F)F)c(C(N)=O)s3)c2cc1OC
inhibition (%): -0.64
--
Compound structure string: Nc1ncnc2occ(-c3ccc(NC(=O)Nc4cc(C(F)(F)F)cc(C(F)(F)F)c4)cc3)c12
inhibition (%): 3.32
--
Compound structure string: COc1cc(C)c(NC(=O)CN(C)C)cc1Nc1nc(Nc2cccc(F)c2C(N)=O)c2cc[nH]c2n1
inhibition (%): -0.14

----------
System: Cyclin-dependent kinase 5 (Homo sapiens) (UniProt Q00535);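 note: mean value of inhibition, with the enzyme tested as CDK5/p35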
Sequence (Q00535 whole entry, looked up): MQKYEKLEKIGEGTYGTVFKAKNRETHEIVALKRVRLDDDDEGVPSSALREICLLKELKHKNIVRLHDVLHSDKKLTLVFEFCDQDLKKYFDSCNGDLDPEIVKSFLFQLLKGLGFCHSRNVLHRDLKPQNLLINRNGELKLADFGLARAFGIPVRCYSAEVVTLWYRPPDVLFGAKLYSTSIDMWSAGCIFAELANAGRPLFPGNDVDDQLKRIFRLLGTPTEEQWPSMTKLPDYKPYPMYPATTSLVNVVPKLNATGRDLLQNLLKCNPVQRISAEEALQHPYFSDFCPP
Measurement parameters: at 1 µM
Each entry below lists one item and its recorded inhibition value.

Compound: NC(=O)c1ccc(-c2nc(-c3ccccn3)c(-c3ccc4c(c3)OCO4)[nH]2)cc1
inhibition, %: 0.87

Compound: Nc1ncnc2occ(-c3ccc(NC(=O)Nc4cccc(C(F)(F)F)c4)cc3)c12
inhibition, %: 4.7

Compound: Cc1nnc(-c2ccc(C)c(-c3ccc(C(=O)Nc4cccc(C#N)c4)cc3)c2)o1
inhibition, %: 1.71

Compound: Cc1ccc(C(=O)NC2CCCCC2)cc1-c1ccc(C(=O)NCC2CC2)cc1
inhibition, %: 1.18

Compound: CCn1c(-c2nonc2N)nc2c(N3CCCC3)nccc21
inhibition, %: 4.5

Compound: N#Cc1c(NC(=O)c2cccc3ccccc23)sc2c1CCCC2
inhibition, %: 5.67

Compound: CC(C)=Cc1cccc2c1/C(=N/Nc1ccc(S(N)(=O)=O)cc1)C(=O)N2
inhibition, %: 73.3

Compound: COc1cc2ncn(-c3cc(O[C@@H](C)c4ccccc4Cl)c(C(N)=O)s3)c2cc1OC
inhibition, %: 2.21

Compound: COc1cc(C)c(NC(=O)CN(C)C)cc1Nc1nc(Nc2cccc(F)c2C(N)=O)c2cc[nH]c2n1
inhibition, %: -1.89

Compound: CN1CCC(C(=O)Nc2n[nH]c3nnc(-c4ccccc4)cc23)CC1
inhibition, %: 3.61

Compound: CCn1c(-c2nonc2N)nc2c(C#CC(C)(C)O)nc(OC[C@@H](N)c3ccccc3)cc21
inhibition, %: 0.49

Compound: NS(=O)(=O)c1ccc(N/N=C2\C(=O)Nc3ccc(C(=O)NCCc4c[nH]cn4)cc32)cc1
inhibition, %: 84.4

Compound: O=C1Nc2ccc(C(=O)c3ccco3)cc2C1=Cc1cc(Cl)c(O)c(Cl)c1
inhibition, %: 6.39

Compound: CCn1c(-c2nonc2N)nc2cnc(Oc3cccc(NC(=O)c4ccc(OCCN5CCOCC5)cc4)c3)cc21
inhibition, %: 0.42

Compound: CCn1c(-c2nonc2N)nc2cncc(C(=O)N3CC[C@H](N)C3)c21
inhibition, %: 0.69

Compound: CC1=C(C(=O)Nc2ccc3[nH]ncc3c2)C(c2ccc(F)cc2)NC(=O)N1 (centres undefined)
inhibition, %: 3.23

Compound: O=C1NC(=O)C(c2cccc(Cl)c2)=C1Nc1ccc(O)c(Cl)c1
inhibition, %: 7.25

Compound: O=C1NC(=O)C(c2ccc(Cl)cc2)=C1Nc1ccc(Cl)c(C(=O)O)c1
inhibition, %: 1.75

Compound: CS(=O)(=O)Nc1ccc(N/C=C2\C(=O)Nc3ccccc32)cc1
inhibition, %: 39.8
